molecular target: Solute carrier family 2, facilitated glucose transporter member 1 (Homo sapiens) (UniProt P11166); assay: ST_JUDE_LEISH: Cytotoxicity at 2uM final concentration against transgenic Leishmania Mexicana promastigotes LmGLUT1 that are glucose transport deficient and complemented with the human glucose transporter GLUT1. Activity is measured by DNA content using SYBR green in vitro; type: functional
Sequence (P11166 whole entry): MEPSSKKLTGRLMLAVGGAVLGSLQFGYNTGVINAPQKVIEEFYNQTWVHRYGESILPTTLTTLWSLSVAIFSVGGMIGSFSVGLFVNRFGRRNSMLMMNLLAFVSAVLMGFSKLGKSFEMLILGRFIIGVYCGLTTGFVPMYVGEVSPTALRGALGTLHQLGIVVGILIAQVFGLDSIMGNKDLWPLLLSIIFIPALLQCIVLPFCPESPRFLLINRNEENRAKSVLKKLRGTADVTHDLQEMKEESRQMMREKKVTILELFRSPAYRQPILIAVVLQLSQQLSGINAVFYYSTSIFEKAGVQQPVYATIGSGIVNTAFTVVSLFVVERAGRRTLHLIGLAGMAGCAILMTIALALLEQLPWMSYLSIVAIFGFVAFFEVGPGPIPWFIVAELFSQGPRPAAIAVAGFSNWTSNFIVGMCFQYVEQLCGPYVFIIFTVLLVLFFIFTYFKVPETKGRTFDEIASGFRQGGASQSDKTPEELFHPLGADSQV
observation_type: inhibition (%)
Report only the number, with the unit % understood.

Problem: Which inhibition value is on record for "CC(C)Cn1c(Sc2ccc(C#N)c([N+](=O)[O-])c2)nnc1-c1cccc(Cl)c1" ?
Solution: 12.7

Problem: Entry "COc1cccc(NC(=O)CSc2nc(-c3ccccc3Cl)ns2)c1" please
Solution: 5.33

Problem: Entry "COc1ccc(NC(=O)CCNc2cc(C)nc(NCCc3ccccc3)n2)cc1" please
Solution: 4.71

Problem: Entry "Cc1ccc2c(=O)n(C)c(=O)n(C)c2n1" please
Solution: 6.05

Problem: Entry "CC(C)C[C@H](NC(=O)c1cc2ccccc2s1)C(=O)N[C@H]1CCN(Cc2ccc(OC[C@@H]3CCCN3C)c(Cl)c2)C1" please
Solution: 10.8

Problem: Entry "CCNC(=O)c1ccc(-n2nc(C)cc2-c2ccccc2)cc1" please
Solution: 2.66

Problem: Entry "CCCc1cc(C(=O)N[C@@H](Cc2ccccc2)[C@H](O)CNC2CCOCC2)c(F)c(N2CCCCS2(=O)=O)c1" please
Solution: 4.76

Problem: Entry "COc1ccc(Cc2c(N)nc3nc(N)nc(N)c3c2C)cc1" please
Solution: 1.48

Problem: Entry "Cc1cccc(CNc2ncc(C)c(NCCC(=O)Nc3ccccc3)n2)c1" please
Solution: 15.3

Problem: Entry "CN1CCC(NCc2ccc(S(=O)(=O)Nc3ccc(Oc4cccc(Cl)c4)cc3)cc2)CC1" please
Solution: 1.15

Problem: Entry "COCCOC(=O)C(=O)c1c(-c2ccccc2)c(-c2ccc(OC)c(OC)c2)c2c3cc(OC)c(OC)cc3ccn12" please
Solution: 4.89

Problem: Entry CCN(CC)CC(O)Cc1c2ccc([N+](=O)[O-])cc2nc2cc(OC)c(OC)cc12 (stereo not given) please
Solution: 0.42

Problem: Entry "COc1ccc2ccccc2c1CON1C(=N)N=C(N)NC1(C)C" please
Solution: 1.59

Problem: Entry "CC(C)(C)c1ccc(NC(=O)c2cccc(CN3CCCN(Cc4cccc(Cl)c4)CC3)c2)cc1" please
Solution: 5.32

Problem: Entry "O=C(NCC1CCN(CCN2CCc3ccc4c(c3C2)OCO4)CC1)c1ccc(-c2ccc(C(F)(F)F)cc2)cc1" please
Solution: 2.17

Problem: Entry O=C(c1ccc(Cl)cc1)N1CCOC(CCN2CCC(c3ccccc3)CC2)(c2ccc(Cl)c(Cl)c2)C1 (stereo not given) please
Solution: 0.85

Problem: Entry "CN(Cc1ccccc1)C(=O)CCNS(=O)(=O)c1cc(Br)cnc1N" please
Solution: 2.6

Problem: Entry "Cc1nnc2c(NC(=O)/C=C/c3ccc(OC(F)(F)F)cc3)cc3cc(Cl)ccc3n12" please
Solution: 0.28

Problem: Entry "O=C(NCCc1ccccc1)[C@H](Cc1ccccc1)Nc1ccnc(NCC2CCCCC2)n1" please
Solution: -0.55

Problem: Entry "CN1CCN(Cc2cccc(Nc3nccc(Nc4ccc(Oc5ccccc5)cc4)n3)c2)CC1" please
Solution: 1.89
